experiment: Pharmacokinetics of weight-based doses in AML subjects; format: in vivo, human; details: human, plasma, intravenous, 10 mg/kg, 10 mg/kg/dose; read-out: Cmax, Mean

compound	Cmax (µg/mL)
CC[C@@H]1CC(C(=O)NCCNC(=O)CCOCCOCCOCCOCCOCCOCCOCCOCCOCCOCCOCCOC)C[C@@H](O[C@@H]2O[C@@H](CO)[C@H](O)C(O[C@@H](CC3CCCCC3)C(=O)O)C2NC(C)=O)C1OC1O[C@@H](C)C(O)[C@H](O)[C@@H]1O (stereo partly shown) [compound of Formula (I)]	79.6

###

test: Pharmacokinetics of weight-based doses in AML subjects; type: in vivo, human; conditions: human, plasma, intravenous, 10 mg/kg, 10 mg/kg/dose; read-out: Cmax, Median

compound	Cmax
CC[C@@H]1CC(C(=O)NCCNC(=O)CCOCCOCCOCCOCCOCCOCCOCCOCCOCCOCCOCCOC)C[C@@H](O[C@@H]2O[C@@H](CO)[C@H](O)C(O[C@@H](CC3CCCCC3)C(=O)O)C2NC(C)=O)C1OC1O[C@@H](C)C(O)[C@H](O)[C@@H]1O (stereo partly shown)	76.2 µg/mL
